Measured CapB cleavage rate (%) at 4 hrs accompanies every entry in the list below.
- assay-target: Human liver Cathepsin B (Homo sapiens, UniProt P07858)
- assay-protocol: Cathepsin B cleavage assay of linker-payloads
- conditions-used: Table 1D
Just the number please, in %, no unit attached.

[[record]]
compound = "CCCC1O[C@@H]2C[C@H]3[C@@H]4C[C@H](F)C5=CC(=O)C=C[C@]5(C)[C@@]4(F)[C@@H](O)C[C@]3(C)[C@]2(C(=O)CNC(=O)OCc2ccc(NC(=O)[C@H](CCCNC(N)=O)NC(=O)[C@@H](NC(=O)CCOCCOCCOCCOCCNC(=O)CCC(=O)N3Cc4ccccc4C#Cc4ccccc43)C(C)C)cc2)O1 (stereo partly drawn) [10a]"
quantity_kind = "CapB cleavage rate (%) at 4 hrs"
recorded_measurement = 18.6


Let us move to another entry and its CapB cleavage rate (%) at 4 hrs.
### Prompt Recorded CapB cleavage rate (%) at 4 hrs for CCCC1O[C@@H]2C[C@H]3[C@@H]4C[C@H](F)C5=CC(=O)C=C[C@]5(C)[C@@]4(F)[C@@H](O)C[C@]3(C)[C@]2(C(=O)CNC(=O)OCc2ccc(NC(=O)[C@H](CCCNC(N)=O)NC(=O)[C@@H](NC(=O)[C@@H](CCCCNC(=O)COC3CCCCCc4c3nnn4CCN(CC(=O)NCCS(=O)(=O)O)CC(=O)NCCS(=O)(=O)O)NC(=O)CCOCCOCCOCCOCCNC(=O)CCC(=O)N3Cc4ccccc4C#Cc4ccccc43)C(C)C)cc2)O1 (stereo partly drawn) , please?
### Response 63.0

Reference source for all entries: patent US20240408223A1
